assay: Biodisposition of JV-DE1 eye drops in New Zealand rabbits (LC-MS/MS of plasma and ocular tissues); assay type: in vivo; conditions: New Zealand, posterior sclera, topical, 120 µg/eye; rabbit; single eye drop 120 μg/eye OD; 24 h; read-out: Drug in OD Tissues, Posterior sclera

| Structure | Unit Of Measurement | concentration at 24 h |
| --- | --- | --- |
| CC(C)Oc1ccc(Cc2ccc(NC3=NCCN3)cc2)cc1 | ng/g | 64.5 |

---

experiment: Biodisposition of JV-DE1 and JV-MD2 delivered via NIODP (periorbital skin) in non-human primates; type: in vivo, cynomolgus monkeys; conditions: cynomolgus, cynomolgus monkey, vitreous humor, topical; JV-DE1; monkey; NIODP OD; 179.1 μg/eye; 0.5 h; read-out: Drug in OD Tissues, Vitreous humor
Property Measured: concentration at 0.5 h (ng/mL)

| Compound | Unit Of Measurement | Result Number |
| --- | --- | --- |
| CC(C)Oc1ccc(Cc2ccc(NC3=NCCN3)cc2)cc1 [JV-DE1] | ng/mL | 15.2 |

---

assay: Biodisposition of JV-DE1 eye drops in New Zealand rabbits (LC-MS/MS of plasma and ocular tissues); assay type: in vivo; conditions: New Zealand, conjunctiva, other: eye drop applied to the eye; rabbit; single eye drop 120 μg/eye OD; 0.5 h; read-out: Drug in OD Tissues, Conjunctiva

| Structure | Unit Of Measurement | concentration at 0.5 h |
| --- | --- | --- |
| CC(C)Oc1ccc(Cc2ccc(NC3=NCCN3)cc2)cc1 | ng/g | 16500 |

---

assay: Biodisposition of JV-DE1 eye drops in New Zealand rabbits (LC-MS/MS of plasma and ocular tissues); assay type: in vivo; conditions: New Zealand, conjunctiva, other: eye drop applied to the eye; rabbit; single eye drop 120 μg/eye OD; 24 h; read-out: Drug in OD Tissues, Conjunctiva
Property Measured: concentration at 24 h (ng/g)

| Structure | Property Measured | Result Number |
| --- | --- | --- |
| CC(C)Oc1ccc(Cc2ccc(NC3=NCCN3)cc2)cc1 | concentration at 24 h | 994 |

---

experiment: Biodisposition of JV-DE1 and JV-MD2 delivered via NIODP (periorbital skin) in non-human primates; type: in vivo, cynomolgus monkeys; conditions: cynomolgus, cynomolgus monkey, upper eyelid (periorbital skin) of the dosed left eye (OS), topical; JV-MD2; monkey; NIODP OS; 6747 μg/eye; 24 h; endogenous BLQ; read-out: Drug in OS Tissues, Eyelid/periorbital skin

| Compound | concentration at 24 h |
| --- | --- |
| CC/C=C\C/C=C\C/C=C\C/C=C\C/C=C\C/C=C\CCC(=O)O [JV-MD2, cis-4,7,10,13,16,19-docosahexaenoic acid] | 16000 ng/g |

---

test: Biodisposition of JV-DE1 and JV-MD2 delivered via NIODP (periorbital skin) in non-human primates; format: in vivo, cynomolgus monkeys; conditions: cynomolgus, cynomolgus monkey, eyelid/periorbital skin (upper eyelid), topical; JV-DE1; monkey; NIODP OD; 159.3 μg/eye; 24 h; read-out: Drug in OD Tissues, Eyelid/periorbital skin

| Structure | Unit Of Measurement | concentration at 24 h |
| --- | --- | --- |
| CC(C)Oc1ccc(Cc2ccc(NC3=NCCN3)cc2)cc1 | ng/g | 11600 |

---

assay: Biodisposition of JV-DE1 eye drops in New Zealand rabbits (LC-MS/MS of plasma and ocular tissues); format: in vivo; conditions: New Zealand, retina, topical, 120 µg/eye; rabbit; single eye drop 120 μg/eye OD; 3 h; read-out: Drug in OD Tissues, Retina
Property Measured: concentration at 3 h (ng/g)

| Structure | Result Number |
| --- | --- |
| CC(C)Oc1ccc(Cc2ccc(NC3=NCCN3)cc2)cc1 | 49.1 |
